B1: tRNA (parent)
chain: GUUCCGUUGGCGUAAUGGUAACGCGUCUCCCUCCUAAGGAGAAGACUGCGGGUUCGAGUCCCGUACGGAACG

# Variants of: B1
# measurement_protocol: yeast fitness relative to wild type (ratio to wild type); higher = fitter; tRNA-Arg(CCU), competitive growth, 37 C, YPD
This sample holds only a part of the variants without activity.

mutation_list | yeast fitness
G56C C62G G68C | 0.56
A21U U26G G44A | 0.511
U13A C49U | 1.02
C31G C33U A42U | 0.649
U2A C5A C31A A43G A45C | ≤ 0.5
A42C C49G G50A | 0.507
C11A G12A C66A | ≤ 0.5
C5G A14G | 0.999
U3A A15G U19A U32C G41A G50A | ≤ 0.5
U35G C46U A65C G67C | ≤ 0.5
U7C A21U A36U A37C | ≤ 0.5
C4A A20G U28G G68C A70C | ≤ 0.5
G17A U54A | 0.566
A36U A40U C60A | 0.713
A20U G41C | 0.753
C4U G23C A36C C55G A57U G67A | ≤ 0.5
U13G C31G A43U C46G A70U | ≤ 0.5
U3C A43C A69C | 0.762
A15U A40U G68C | 0.627
C4G C11U U28G A45C U53A G63C | 0.559
A37G U54C A65U | ≤ 0.5
C5U G41A G52A | ≤ 0.5
